system: MCF7; assay: Growth inhibition of human MCF7 cells after 72 hrs by MTT assay; assay type: functional, cell-based; conditions: MCF7, 72 h
Each entry below lists one item and its recorded IC50 value.

>  <GIVEN_SMILES>
CCC(=O)[C@H](C)c1oc([C@H](C)[C@@H]2O[C@](O)([C@@H](C)c3oc(CC)c(C)c(=O)c3C)[C@@H](C)[C@@H](OC(=O)CC(C)C)[C@@H]2C)c(C)c(=O)c1C

>  <SCALE_UNIT>
µM

>  <INEQUALITY_SYMBOL>
=

>  <IC50>
21

$$$$
>  <GIVEN_SMILES>
CCc1oc([C@H](C)/C=C(\C)[C@H](O)[C@H](C)[C@@H](OC(=O)CC(C)C)[C@@H](C)c2oc([C@@H](C)[C@@H](O)CC)c(C)c(=O)c2C)c(C)c(=O)c1C

>  <SCALE_UNIT>
µM

>  <INEQUALITY_SYMBOL>
>

>  <IC50>
100

$$$$
>  <GIVEN_SMILES>
CCC(=O)[C@@H](C)c1oc([C@H](C)[C@@H]2O[C@](O)([C@@H](C)c3oc(CC)c(C)c(=O)c3C)[C@@H](C)[C@@H](O)[C@@H]2C)c(C)c(=O)c1C

>  <SCALE_UNIT>
µM

>  <INEQUALITY_SYMBOL>
=

>  <IC50>
87

$$$$

###

test system: SK-MEL-28; assay: Growth inhibition of human SK-MEL-28 cells after 72 hrs by MTT assay; format: functional, cell-based; settings: SK-MEL-28, 72 h
Each entry below lists one item and its recorded IC50 value.

>  <COMPOUND>
CC[C@@]1(O)C(=O)OCc2c1cc1n(c2=O)Cc2cc3ccccc3nc2-1

>  <SCALE_UNIT>
µM

>  <INEQUALITY_SYMBOL>
<

>  <IC50>
0.01

$$$$
>  <COMPOUND>
CCC(=O)[C@H](C)c1oc([C@H](C)[C@@H]2O[C@](O)([C@@H](C)c3oc(CC)c(C)c(=O)c3C)[C@@H](C)[C@@H](O)[C@@H]2C)c(C)c(=O)c1C

>  <SCALE_UNIT>
µM

>  <INEQUALITY_SYMBOL>
>

>  <IC50>
100

$$$$
>  <COMPOUND>
CCc1oc([C@H](C)/C=C(\C)[C@H](O)[C@H](C)[C@@H](OC(=O)CC(C)C)[C@@H](C)c2oc([C@@H](C)[C@@H](O)CC)c(C)c(=O)c2C)c(C)c(=O)c1C

>  <SCALE_UNIT>
µM

>  <INEQUALITY_SYMBOL>
>

>  <IC50>
100

$$$$
>  <COMPOUND>
CCc1oc([C@H](C)/C=C(\C)[C@H](OC(C)=O)[C@H](C)[C@@H](OC(=O)CC(C)C)[C@@H](C)c2oc([C@@H](C)[C@@H](O)CC)c(C)c(=O)c2C)c(C)c(=O)c1C

>  <SCALE_UNIT>
µM

>  <INEQUALITY_SYMBOL>
=

>  <IC50>
25

$$$$
>  <COMPOUND>
COc1cc([C@@H]2c3cc4c(cc3[C@@H](O[C@@H]3O[C@@H]5CO[C@@H](C)O[C@H]5[C@H](O)[C@H]3O)[C@H]3COC(=O)[C@H]23)OCO4)cc(OC)c1O [ETOPOSIDE]

>  <SCALE_UNIT>
µM

>  <INEQUALITY_SYMBOL>
=

>  <IC50>
3

$$$$
>  <COMPOUND>
CCC(=O)[C@H](C)c1oc([C@H](C)[C@@H]2O[C@](O)([C@@H](C)c3oc(CC)c(C)c(=O)c3C)[C@@H](C)[C@@H](OC(=O)CC(C)C)[C@@H]2C)c(C)c(=O)c1C

>  <SCALE_UNIT>
µM

>  <INEQUALITY_SYMBOL>
=

>  <IC50>
23

$$$$
>  <COMPOUND>
CCC(=O)[C@@H](C)c1oc([C@H](C)[C@@H]2O[C@](O)([C@@H](C)c3oc(CC)c(C)c(=O)c3C)[C@@H](C)[C@@H](O)[C@@H]2C)c(C)c(=O)c1C

>  <SCALE_UNIT>
µM

>  <INEQUALITY_SYMBOL>
>

>  <IC50>
100

$$$$
